B1: library; a variant is named by its letters at N, in order (parent)
chain: GCUGUCACCGGAAUACCAGCAUCGUCUUGAUGCCCUUGGAAGUCCGGUCUGAUGAGUCCNNNNNGGACGAAACAGC

- Variants of: B1
- protocol text: FACS-Seq fitted mean relative fluorescence mCherry/BFP without ligand (log10 relative fluorescence); higher = higher reporter protein expression
- experimental context: HEK293T, ligand present: no
experimental endpoint: FACS-Seq fitted mean (log10)
Provide a numeric answer; units are not to be included.

These solved cases illustrate the format of a correct answer.
> print(dat)
    mutant.id  measurement
 1      UUAAU         1.13
 2      AGAGC        0.629
 3      UGGUU        0.938
 4      UCUCC        0.732
 5      CGGGA        0.508
 6      AUUAA         0.68
 7      AAUAG        0.929
 8      UCACU        0.354
 9      AGCCG        0.757
10      UUUAU        0.444

GET /values?readout=FACS-Seq fitted mean (log10)&item= CUGAC
0.906

Now try CGCAC .
0.436

One more variant: AUGAU
0.439

Lookup UGACG
0.444

Now consider ACAGG .
0.315

Also, UCUGA please.
0.9

Another variant to look at: AAUUU
0.603

Record: AAGGG
0.384
